target: Hell's Gate globin-I (HGb-I) (Candidatus Methylacidiphilum infernorum, UniProt B3DUZ7); construct: gene hmp; test: optical (absorbance) titration of ferric protein at pH […] °C; type: binding
Sequence (B3DUZ7 1-133): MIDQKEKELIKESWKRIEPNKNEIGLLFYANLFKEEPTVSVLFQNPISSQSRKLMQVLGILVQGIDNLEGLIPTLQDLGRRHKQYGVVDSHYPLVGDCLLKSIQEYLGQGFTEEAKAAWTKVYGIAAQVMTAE
Outcome Measure: pKd
Units for pKd: none; it is -log10 of a concentration expressed in mol/L.

Input: If you can, please state the reported pKd value of CCCCCCCCCCCCCCCC(=O)O [palmitate] .
Output: 5.01
